# System: A549
# Test Details: Cytotoxicity against human A549 cells
# Assay type: functional, cell-based
Reported IC50 values are given for each entry in this list.

Examples with answers:
INSERT INTO results (compound, study_target, test_readout, reported_value) VALUES
  ('CO[C@@]1(C)CCC(C(C)C)=C[C@@H]2[C@H]1CC[C@]2(C)O', 'A549', 'IC50', '> 1 µg/mL'),
  ('COC(=O)[C@@H](C)[C@@H]1CC[C@](C)(CCC(=O)C(C)(C)CCCC(C)=O)OO1 [DIACARPEROXIDE B]', 'A549', 'IC50', '> 1 µg/mL'),
  ('C=C(CCCC(C)(C)O)C(=O)CC[C@@]1(C)CC[C@@H]([C@H](C)C(=O)OC)OO1 [AIKUPIKOXIDE D]', 'A549', 'IC50', '> 1 µg/mL'),
  ('CC(=O)CCCC(C)(C)C(=O)CC/C(C)=C/CC[C@@]1(C)CC[C@H]([C@H](C)C(=O)O)OO1 [AIKUPIKOXIDE A]', 'A549', 'IC50', '> 1 µg/mL');

// next item, IC50 requested
Please report the recorded IC50 for C=C1CCCC(C)(C)C1(O)CC[C@@]1(C)CC[C@@H]([C@H](C)C(=O)OC)OO1 (stereo not given in full) [AIKUPIKOXIDE B] .
> 1 µg/mL
